The values you see were collected from patent US7563793B2.

tested on: IL-6; experiment: IL-6 assay (ELISA) in Ad5-wt-ER infected HAECT-1 cells (IL-1β induced); format: cell-based, human; conditions: Homo sapiens, HAECT1
observable: IC50 (nM)

compound	unit spec	IC50
CCC1c2cccn2-c2c(cc(F)c(F)c2F)N1S(=O)(=O)c1ccc(O)cc1 (stereo not drawn)	nM	92

I = CCC1c2ccc(C#N)n2-c2cc(F)c(F)cc2N1S(=O)(=O)c1ccc(O)cc1 (stereo not drawn)
II = CC[C@H]1c2cccn2-c2ccc(F)cc2N1C(=O)c1ccc(O)cc1 [119 (S)]
Request: Of the pair I and II , name the member with the lesser recorded IC50. Use the label to indicate which entry you chose.
Result: II
(II: 101 nM, I: 299 nM)

---

test system: creatine kinase; test: Creatine kinase assay in Ad5-wt-ER infected HAECT-1 cells; assay type: cell-based, human; details: Homo sapiens, HAECT1, CK stimulation, N/O = activity not observed at concentrations tested, read-out: CK IC50
observable: EC50 (nM)

Record excerpt, results attached:
compound	study system	EC50 / nM
CCC1c2cccn2-c2ccc(Br)cc2N1C(=O)c1cccc(O)c1 (stereo not drawn)	creatine kinase	207
CCC1c2cccn2-c2ccc(Br)cc2N1C(=O)c1ccc(O)cc1O (stereo not drawn)	creatine kinase	25
C[C@]12CC[C@@H]3c4ccc(O)cc4CC[C@H]3[C@@H]1CC[C@@H]2O [Example E2, 17β-estradiol, reference compound]	creatine kinase	5.8
CC[C@@H]1c2cccn2-c2ccc(F)cc2N1C(=O)c1ccc(O)cc1O [121 (R)]	creatine kinase	13
CC1c2cccn2-c2ccc(Br)cc2N1C(=O)c1ccc(O)cc1 (stereo not drawn)	creatine kinase	18

A = CC[C@H]1c2ccc(C#N)n2-c2ccc(Br)cc2N1S(=O)(=O)c1ccc(O)cc1
B = CCC1c2cccn2-c2c(cc(F)c(F)c2F)N1S(=O)(=O)c1cccc(O)c1 (stereo not drawn)
C = CC[C@H]1c2ccc(C#N)n2-c2cc(F)c(F)cc2N1S(=O)(=O)c1ccc(O)c(C)c1 [Example 11B]
D = CC[C@H]1c2cccn2-c2ccc(Br)cc2N1S(=O)(=O)c1ccc(O)cc1
Request: Ranking field: EC50; order: falling. Give me the labels in the order the question wants.
Result: C, D, B, A
(C: 830 nM, D: 212 nM, B: 99 nM, A: 9.9 nM)

a = CC[C@@H]1c2cccn2-c2ccc(F)cc2N1C(=O)c1ccc(O)cc1 [119 (R)]
b = CC[C@@H]1c2cccn2-c2cc(F)c(F)cc2N1S(=O)(=O)c1ccc(O)c(C)c1 [102 (R)]
c = CC[C@H]1c2cccn2-c2ccc(Cl)cc2N1C(=O)c1ccc(O)cc1O [125 (S)]
Request: rank_up(items): orders items by reported EC50 in ascending numerical order. Give me the labels in the order the question wants.
Result: a, c, b

---

tested on: ER/Nf-kB; test: ER/NF-κB luciferase reporter assay in Ad5-wt-ER infected HAECT-1 cells (IL-1β induced); type: cell-based, human
observable: IC50 (nM)

Record excerpt, results attached:
compound	study system	IC50 (nM)
CCC1c2cccn2-c2ccc(C(F)(F)F)cc2N1S(=O)(=O)c1ccc(O)c(C)c1 (stereo not shown)	ER/Nf-kB	85
CCC1c2cccn2-c2ccc(F)cc2N1S(=O)(=O)c1ccc(O)cc1 (stereo not shown)	ER/Nf-kB	71

1 = CCC1c2cccn2-c2cc(F)c(F)cc2N1S(=O)(=O)c1ccc(O)c(C)c1 (stereo not shown)
2 = Cc1cc(S(=O)(=O)N2c3cc(F)ccc3-n3cccc3C2C)ccc1O (stereo not shown)
Request: I need your help: which of the pair 1 , 2 has higher IC50? Use the label to indicate which entry you chose.
Result: 2

---

system: IL-6; assay: IL-6 assay (ELISA) in Ad5-wt-ER infected HAECT-1 cells (IL-1β induced); assay type: cell-based, human; details: Homo sapiens, HAECT1
pIC50: −log10 of the molar value.
observable: pIC50

compound	study system	observable	recorded result
CC[C@H]1c2ccc(C#N)n2-c2cc(F)c(F)cc2N1S(=O)(=O)c1ccc(O)cc1 [101 (S)]	IL-6	pIC50	6.37
CC(C)(C)C1c2cccn2-c2ccc(Br)cc2N1C(=O)c1ccc(O)cc1O (stereo not shown)	IL-6	pIC50	8.05

A = CCC1c2cccn2-c2ccc(F)cc2N1C(=O)c1ccc(O)cc1 (stereo not shown)
B = CC[C@@H]1c2cccn2-c2ccc(Br)cc2N1S(=O)(=O)c1ccc(O)cc1
Request: I need your help: which of the pair A , B has higher pIC50? Use the label to indicate which entry you chose.
Result: A
(A: 8.52, B: 5.96)

---

System: ER/Nf-kB
Test: ER/NF-κB luciferase reporter assay in Ad5-wt-ER infected HAECT-1 cells (IL-1β induced)
Format: cell-based, human
Description: After four hours, cells were washed with EBM-BSA and incubated overnight in the same medium. […] After two hours, cells were washed and incubated at 34° C. for 1 hour. […] Control (no ER infection) cells were processed as above without Ad5-wt-hERα virus infection. […] Luciferase was determined on a Wallac Victor^2 Luminometer (Gaithersburg, Md.) using 10 μl of lysate and mixing with 100 lμof Promega Luciferase Assay reagent. […]
observable: IC50 (nM)

molecule	study system	IC50 / nM
CC1(C)c2cccn2-c2cc(F)c(F)cc2N1S(=O)(=O)c1ccc(O)cc1 [Example 15]	ER/Nf-kB	150

1 = CCC1c2cccn2-c2ccc(Cl)cc2N1S(=O)(=O)c1ccc(O)c(C)c1 (stereo not drawn) [Example 68A]
2 = CCOC(=O)Oc1ccc(S(=O)(=O)N2c3ccc(Cl)cc3-n3cccc3C2CC)cc1 (stereo not drawn) [Example 70]
Request: I need your help: which of the pair 1 , 2 has higher IC50? Use the label to indicate which entry you chose.
Result: 2
